Experimental target: TF/FVIIa (Homo sapiens)
Construct: Coagulation factor VIIa initiates the extrinsic part of the coagulation cascade
Sequence (P08709 213-466 limits assumed): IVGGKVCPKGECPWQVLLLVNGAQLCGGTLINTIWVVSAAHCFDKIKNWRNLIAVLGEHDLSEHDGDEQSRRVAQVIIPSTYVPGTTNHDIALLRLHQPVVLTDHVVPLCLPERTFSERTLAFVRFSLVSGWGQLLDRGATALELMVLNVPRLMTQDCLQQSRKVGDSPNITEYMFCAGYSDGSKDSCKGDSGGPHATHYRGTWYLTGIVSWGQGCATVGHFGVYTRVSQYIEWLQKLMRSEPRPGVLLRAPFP
Sequence (P08709 61-212 limits assumed): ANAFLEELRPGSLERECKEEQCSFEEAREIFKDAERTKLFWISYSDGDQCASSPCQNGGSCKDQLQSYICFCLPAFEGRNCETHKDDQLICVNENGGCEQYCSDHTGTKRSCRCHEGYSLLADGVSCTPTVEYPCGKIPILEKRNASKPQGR
Sequence (P13726 33-295 partner): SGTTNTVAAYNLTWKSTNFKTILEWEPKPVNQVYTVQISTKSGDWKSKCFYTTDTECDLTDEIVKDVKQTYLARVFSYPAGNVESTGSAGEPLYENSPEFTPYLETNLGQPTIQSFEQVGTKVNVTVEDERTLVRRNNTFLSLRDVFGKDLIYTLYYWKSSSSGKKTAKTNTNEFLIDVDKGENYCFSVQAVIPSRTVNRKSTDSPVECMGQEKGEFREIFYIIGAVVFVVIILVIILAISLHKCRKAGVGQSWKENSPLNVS
Procedure details: TF/factor VIIa inhibition (TF/FVIIa-IC50, pharmacological data)
Assay type: biochemical
pIC50: −log10 of the molar value.
Quantity measured: pIC50

(A) C#Cc1ccc(NC(=O)N[C@H](CCC)C(=O)Nc2ccc(N3CCOCC3=O)cc2)cc1
(B) C#Cc1ccc(NC(=O)N[C@H](CC(C)C)C(=O)Nc2ccc(N3CCOCC3=O)cc2)cc1
(C) C#Cc1ccc(NC(=O)N[C@H](CC(C)C)C(=O)Nc2ccc(N3CCNC3=N)cc2)cc1
Ask: Would you mind ranking these compounds by ascending pIC50? // respond by listing labels in the order requested
Result: C, A, B

###

Experimental target: FXa (Homo sapiens)
Sequence (P00742 235-488 limits assumed): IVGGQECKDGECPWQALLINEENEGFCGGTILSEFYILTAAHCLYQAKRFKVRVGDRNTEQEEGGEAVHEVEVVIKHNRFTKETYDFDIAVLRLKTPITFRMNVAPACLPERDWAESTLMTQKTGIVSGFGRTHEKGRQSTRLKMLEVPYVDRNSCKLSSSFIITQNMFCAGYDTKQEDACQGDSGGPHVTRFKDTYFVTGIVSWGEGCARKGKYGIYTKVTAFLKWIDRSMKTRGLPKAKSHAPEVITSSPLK
Sequence (P00742 41-179 limits assumed): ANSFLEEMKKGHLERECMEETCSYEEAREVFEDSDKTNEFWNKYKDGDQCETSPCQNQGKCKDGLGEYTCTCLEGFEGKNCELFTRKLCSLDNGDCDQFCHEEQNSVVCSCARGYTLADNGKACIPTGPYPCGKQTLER
Quantity measured: IC50 (nM)

>>> meas_value("C#Cc1ccc(NC(=O)N[C@H](CCC)C(=O)Nc2ccc(N3CCOCC3=O)cc2)cc1")
25
>>> meas_value("C#Cc1ccc(NC(=O)N[C@H](CO)C(=O)Nc2ccc(N3CCOCC3=O)cc2)cc1")
42

(I) C#Cc1ccc(NC(=O)N[C@H](CC(C)C)C(=O)Nc2ccc(N3CCNC3=N)cc2)cc1
(II) C#Cc1ccc(NC(=O)N[C@H](COC)C(=O)Nc2ccc(N3CCOCC3=O)cc2)cc1
Ask: Hi! Which is lower in terms of IC50, the first one I or the second one II ? Selection: enter the item's label.
Result: II
(II: 22 nM, I: 46 nM)
